- assay.procedure: Pharmacokinetic analysis of serum levels by LC/MS/MS
- run.conditions: human, in vivo, 150 mg/day, t 1/2, erlotinib alone (day 6), 150 mg/day; individual Schedule A patients 13-18
property.name: half-life

Record C#Cc1cccc(Nc2ncnc3cc(OCCOC)c(OCCOC)cc23)c1 , field half-life: 1540 min

----------
- assay.procedure: Pharmacokinetic analysis of serum levels by LC/MS/MS
- run.conditions: human, in vivo, 150 mg/day
- Protocol: Pharmacokinetic analysis of erlotinib serum levels was undertaken at day 6 (erlotinib alone) and at day 14 (erlotinib and 1 mg/kg/day rosuvastatin treatments) and rosuvastatin at the day 14 timepoint of cycle 1 in 6 study patients (Schedule A). On day 6 and 14 serum erlotinib levels and day 14 serum rosuvastatin levels were determined at 2 h intervals for a full 24 h after drug treatments. […]
property.name: half-life (h)
Please give a number only; it is taken to be in h.

Record C#Cc1cccc(Nc2ncnc3cc(OCCOC)c(OCCOC)cc23)c1 [erlotinib] , field half-life: 18.1
